Reference for the values: ChEMBL document CHEMBL3853319

Here the recorded half-life at 5 µM is given for each entry.
- methodDescription: in vitro
- statedConditions: rat, liver microsomes
assayReadout: half-life at 5 µM

{"columns": ["compound", "assayReadout", "assayResult"],
 "data": [
  ["COc1cc2ncnc(Nc3ccc(F)c(Cl)c3)c2cc1NC(=O)/C=C/CN1CCCCC1 [DACOMITINIB ANHYDROUS]", "half-life at 5 µM", "> 40 min"],
  ["COc1cc2ncnc(Nc3ccc(F)c(Cl)c3)c2cc1OCCCN1CCOCC1", "half-life at 5 µM", "> 40 min"]
]}

----------
Here the recorded half-life at 1 µM is given for each entry.
- methodDescription: in vitro
- statedConditions: rat, hepatocytes

{"columns": ["compound", "half-life at 1 µM (h)"],
 "data": [
  ["COc1cc2ncnc(Nc3ccc(F)c(Cl)c3)c2cc1OCCCN1CCOCC1", 1.68],
  ["COc1cc2ncnc(Nc3ccc(F)c(Cl)c3)c2cc1NC(=O)/C=C/CN1CCCCC1 [DACOMITINIB ANHYDROUS]", 2.38]
]}

----------
- methodDescription: in vivo
- statedConditions: beagle, dog, iv, 5 mg/kg

{"columns": ["molecule", "Vd at 144 h, L/kg"],
 "data": [
  ["COc1cc2ncnc(Nc3ccc(F)c(Cl)c3)c2cc1NC(=O)/C=C/CN1CCCCC1 [DACOMITINIB ANHYDROUS]", 28]
]}

----------
- methodDescription: in vivo
- statedConditions: Sprague-Dawley, rat, po, 50 mg/kg
assayReadout: Cmax at 144 h (ng/mL)

{"columns": ["compound", "assayResult"],
 "data": [
  ["COc1cc2ncnc(Nc3ccc(F)c(Cl)c3)c2cc1NC(=O)/C=C/CN1CCCCC1 [DACOMITINIB ANHYDROUS]", 630]
]}

----------
- methodDescription: Half life in overnight fasted cynomolgus monkey at 5 mg/kg/day, iv by LC/MS analysis
- Assay type: ADME, organism-based, Macaca fascicularis
- statedConditions: in vivo
assayReadout: half-life (h)

{"columns": ["compound", "assayResult"],
 "data": [
  ["COc1cc2ncnc(Nc3ccc(F)c(Cl)c3)c2cc1NC(=O)/C=C/CN1CCCCC1 [DACOMITINIB ANHYDROUS]", 5.7]
]}

----------
Here the recorded half-life at 1 µM is given for each entry.
- methodDescription: in vitro
- statedConditions: human, hepatocytes

{"columns": ["molecule", "unitAbbrev", "half-life at 1 µM"],
 "data": [
  ["COc1cc2ncnc(Nc3ccc(F)c(Cl)c3)c2cc1OCCCN1CCOCC1", "h", 3.75],
  ["COc1cc2ncnc(Nc3ccc(F)c(Cl)c3)c2cc1NC(=O)/C=C/CN1CCCCC1 [DACOMITINIB ANHYDROUS]", "h", 4.15]
]}

----------
- methodDescription: Half life in Beagle dog at 50 mg/kg/day, po by LC/MS analysis
- Format: ADME, organism-based, Canis lupus familiaris
- statedConditions: in vivo

{"columns": ["molecule", "half-life / h"],
 "data": [
  ["COc1cc2ncnc(Nc3ccc(F)c(Cl)c3)c2cc1NC(=O)/C=C/CN1CCCCC1 [DACOMITINIB ANHYDROUS]", 20.9]
]}

----------
- methodDescription: in vivo
- statedConditions: beagle, dog, iv, 5 mg/kg

{"columns": ["compound", "half-life [h]"],
 "data": [
  ["COc1cc2ncnc(Nc3ccc(F)c(Cl)c3)c2cc1NC(=O)/C=C/CN1CCCCC1 [DACOMITINIB ANHYDROUS]", 15.9]
]}

----------
- methodDescription: in vivo
- statedConditions: Sprague-Dawley, rat, iv, 5 mg/kg

{"columns": ["compound", "Vd at 144 h, L/kg"],
 "data": [
  ["COc1cc2ncnc(Nc3ccc(F)c(Cl)c3)c2cc1NC(=O)/C=C/CN1CCCCC1 [DACOMITINIB ANHYDROUS]", 34.2]
]}

----------
- methodDescription: in vivo
- statedConditions: cynomolgus monkey, iv, 5 mg/kg
assayReadout: clearance at 144 h

{"columns": ["compound", "assayResult"],
 "data": [
  ["COc1cc2ncnc(Nc3ccc(F)c(Cl)c3)c2cc1NC(=O)/C=C/CN1CCCCC1 [DACOMITINIB ANHYDROUS]", "44.1 mL/min/kg"]
]}

----------
- methodDescription: in vivo
- statedConditions: cynomolgus monkey, po, 25 mg/kg

{"columns": ["compound", "Cmax at 144 h [µg/mL]"],
 "data": [
  ["COc1cc2ncnc(Nc3ccc(F)c(Cl)c3)c2cc1NC(=O)/C=C/CN1CCCCC1 [DACOMITINIB ANHYDROUS]", 0.22]
]}

----------
- methodDescription: in vivo
- statedConditions: cynomolgus monkey, po, 25 mg/kg

{"columns": ["molecule", "unitAbbrev", "AUC at 144 h"],
 "data": [
  ["COc1cc2ncnc(Nc3ccc(F)c(Cl)c3)c2cc1NC(=O)/C=C/CN1CCCCC1 [DACOMITINIB ANHYDROUS]", "ng·h/mL", 5400]
]}

----------
Here the recorded half-life at 5 µM is given for each entry.
- methodDescription: in vitro
- statedConditions: human, liver microsomes
assayReadout: half-life at 5 µM

{"columns": ["compound", "assayResult"],
 "data": [
  ["COc1cc2ncnc(Nc3ccc(F)c(Cl)c3)c2cc1OCCCN1CCOCC1", "> 40 min"],
  ["COc1cc2ncnc(Nc3ccc(F)c(Cl)c3)c2cc1NC(=O)/C=C/CN1CCCCC1 [DACOMITINIB ANHYDROUS]", "> 40 min"]
]}

----------
- methodDescription: in vivo
- statedConditions: Sprague-Dawley, rat, po, 50 mg/kg

{"columns": ["compound", "half-life"],
 "data": [
  ["COc1cc2ncnc(Nc3ccc(F)c(Cl)c3)c2cc1NC(=O)/C=C/CN1CCCCC1 [DACOMITINIB ANHYDROUS]", "19.4 h"]
]}

----------
- methodDescription: Terminal half life in patient plasma with advanced solid tumor administered at 75 mg
- Type: ADME
- statedConditions: human, read-out: beta t1/2 (converted)

{"columns": ["structureString", "half-life [h]"],
 "data": [
  ["CCOc1cc2ncc(C#N)c(Nc3ccc(F)c(Cl)c3)c2cc1NC(=O)/C=C/CN(C)C", 21.7]
]}

----------
- methodDescription: in vivo
- statedConditions: beagle, dog, po, 50 mg/kg
assayReadout: AUC at 144 h (ng·h/mL)

{"columns": ["compound", "assayResult"],
 "data": [
  ["COc1cc2ncnc(Nc3ccc(F)c(Cl)c3)c2cc1NC(=O)/C=C/CN1CCCCC1 [DACOMITINIB ANHYDROUS]", 25200]
]}

----------
- methodDescription: in vivo
- statedConditions: beagle, dog, iv, 5 mg/kg

{"columns": ["compound", "clearance at 144 h"],
 "data": [
  ["COc1cc2ncnc(Nc3ccc(F)c(Cl)c3)c2cc1NC(=O)/C=C/CN1CCCCC1 [DACOMITINIB ANHYDROUS]", "24.4 mL/min/kg"]
]}

----------
- methodDescription: in vivo
- statedConditions: Sprague-Dawley, rat, po, 50 mg/kg
assayReadout: bioavailability at 144 h (%)

{"columns": ["compound", "assayReadout", "assayResult"],
 "data": [
  ["COc1cc2ncnc(Nc3ccc(F)c(Cl)c3)c2cc1NC(=O)/C=C/CN1CCCCC1 [DACOMITINIB ANHYDROUS]", "bioavailability at 144 h", 80]
]}

----------
- methodDescription: in vivo
- statedConditions: Sprague-Dawley, rat, iv, 5 mg/kg

{"columns": ["compound", "AUC at 144 h [ng·h/mL]"],
 "data": [
  ["COc1cc2ncnc(Nc3ccc(F)c(Cl)c3)c2cc1NC(=O)/C=C/CN1CCCCC1 [DACOMITINIB ANHYDROUS]", 2100]
]}

----------
- methodDescription: in vivo
- statedConditions: Sprague-Dawley, rat, iv, 5 mg/kg

{"columns": ["compound", "half-life"],
 "data": [
  ["COc1cc2ncnc(Nc3ccc(F)c(Cl)c3)c2cc1NC(=O)/C=C/CN1CCCCC1 [DACOMITINIB ANHYDROUS]", "588 min"]
]}

----------
- methodDescription: Half life in human plasma at 30 to 60 mg
- Type: ADME, cell-free
assayReadout: half-life (h)

{"columns": ["compound", "unitAbbrev", "assayResult"],
 "data": [
  ["COc1cc2ncnc(Nc3ccc(F)c(Cl)c3)c2cc1NC(=O)/C=C/CN1CCCCC1 [DACOMITINIB ANHYDROUS]", "h", 59]
]}
